Target or system: T1, Muc1 mucin carrying the CA6 sialoglycotope (human, UniProt P15941 24-1255, sialylated O-linked carbohydrate carrying the CA6 epitope; positions not stated)
T1 construct: whole, on cells; Target of DS6 on CA6-positive human cell lines (flow cytometry) and in their lysates (dot blots, immunoprecipitation); also called CA6 antigen; DS6 antigen
Assay comment: flow cytometry on WISH cells, direct binding
Reported endpoint: Kd
Please don't drop the unit; write it after the number.

As a guide, the following entries are already answered.
Binder	Reported endpoint	Value reported
humanized DS6 antibody version 1.2 (antibody, human IgG1, V domains shown, The light chain is the same as in v1.0; also called huDS6 v1.2; v1.2) VH: QAQLQVSGAEVVKPGASVKMSCKASGYTFTSYNMHWVKQTPGQGLEWIGYIYPGNGATNYNQKFQGKATLTADPSSSTAYMQISSLTSEDSAVYFCARGDSVPFAYWGQGTLVTVSA VL: EIVLTQSPATMSASPGERVTITCSAHSSVSFMHWFQQKPGTSPKLWIYSTSSLASGVPARFGGSGSGTSYSLTISSMEAEDAATYYCQQRSSFPLTFGAGTKLELKR	Kd	4.2 nM
murine DS6 anti-CA6 monoclonal antibody (antibody, IgG1, V domains shown, Whole murine monoclonal IgG from the DS6 hybridoma (ATCC PTA-4449); the 3' heavy chain cloning primer was BamIgG1 and the light chain primer was kappa; also called DS6 antibody; muDS6) VH: QAYLQQSGAELVRSGASVKMSCKASGYTFTSYNMHWVKQTPGQGLEWIGYIYPGNGATNYNQKFKGKATLTADPSSSTAYMQISSLTSEDSAVYFCARGDSVPFAYWGQGTLVTVSA VL: QIVLTQSPAIMSASPGEKVTITCSAHSSVSFMHWFQQKPGTSPKLWIYSTSSLASGVPARFGGSGSGTSYSLTISRMEAEDAATYYCQQRSSFPLTFGAGTKLELKR	Kd	1.93 nM
chimeric DS6 (antibody, V domains shown) VH: QAYLQQSGAELVRSGASVKMSCKASGYTFTSYNMHWVKQTPGQGLEWIGYIYPGNGATNYNQKFKGKATLTADPSSSTAYMQISSLTSEDSAVYFCARGDSVPFAYWGQGTLVTVSA VL: QIVLTQSPAIMSASPGEKVTITCSAHSSVSFMHWFQQKPGTSPKLWIYSTSSLASGVPARFGGSGSGTSYSLTISRMEAEDAATYYCQQRSSFPLTFGAGTKLELKR	Kd	3.15 nM

Then this binder:
Inquiry: Annotate the binder humanized DS6 antibody version 1.0 (antibody, human IgG1, V domains shown, also called huDS6 v1.0; v1.0) VH: QAQLQVSGAEVVKPGASVKMSCKASGYTFTSYNMHWVKQTPGQGLEWIGYIYPGNGATNYNQKFQGKATLTADTSSSTAYMQISSLTSEDSAVYFCARGDSVPFAYWGQGTLVTVSA VL: EIVLTQSPATMSASPGERVTITCSAHSSVSFMHWFQQKPGTSPKLWIYSTSSLASGVPARFGGSGSGTSYSLTISSMEAEDAATYYCQQRSSFPLTFGAGTKLELKR with its measured Kd.
Reply text: 3.71 nM
